target: HDAC6 (Homo sapiens, UniProt Q9UBN7); construct: purchased Reaction Biology Corporation (assay run by the CRO); assay: HDAC6 inhibition, full IC50 measurement (Reaction Biology; fluorogenic p53 peptide RHKK(Ac)AMC); assay type: biochemical; conditions: Conc. 3.70E-07 M, t1
Sequence (Q9UBN7 whole entry): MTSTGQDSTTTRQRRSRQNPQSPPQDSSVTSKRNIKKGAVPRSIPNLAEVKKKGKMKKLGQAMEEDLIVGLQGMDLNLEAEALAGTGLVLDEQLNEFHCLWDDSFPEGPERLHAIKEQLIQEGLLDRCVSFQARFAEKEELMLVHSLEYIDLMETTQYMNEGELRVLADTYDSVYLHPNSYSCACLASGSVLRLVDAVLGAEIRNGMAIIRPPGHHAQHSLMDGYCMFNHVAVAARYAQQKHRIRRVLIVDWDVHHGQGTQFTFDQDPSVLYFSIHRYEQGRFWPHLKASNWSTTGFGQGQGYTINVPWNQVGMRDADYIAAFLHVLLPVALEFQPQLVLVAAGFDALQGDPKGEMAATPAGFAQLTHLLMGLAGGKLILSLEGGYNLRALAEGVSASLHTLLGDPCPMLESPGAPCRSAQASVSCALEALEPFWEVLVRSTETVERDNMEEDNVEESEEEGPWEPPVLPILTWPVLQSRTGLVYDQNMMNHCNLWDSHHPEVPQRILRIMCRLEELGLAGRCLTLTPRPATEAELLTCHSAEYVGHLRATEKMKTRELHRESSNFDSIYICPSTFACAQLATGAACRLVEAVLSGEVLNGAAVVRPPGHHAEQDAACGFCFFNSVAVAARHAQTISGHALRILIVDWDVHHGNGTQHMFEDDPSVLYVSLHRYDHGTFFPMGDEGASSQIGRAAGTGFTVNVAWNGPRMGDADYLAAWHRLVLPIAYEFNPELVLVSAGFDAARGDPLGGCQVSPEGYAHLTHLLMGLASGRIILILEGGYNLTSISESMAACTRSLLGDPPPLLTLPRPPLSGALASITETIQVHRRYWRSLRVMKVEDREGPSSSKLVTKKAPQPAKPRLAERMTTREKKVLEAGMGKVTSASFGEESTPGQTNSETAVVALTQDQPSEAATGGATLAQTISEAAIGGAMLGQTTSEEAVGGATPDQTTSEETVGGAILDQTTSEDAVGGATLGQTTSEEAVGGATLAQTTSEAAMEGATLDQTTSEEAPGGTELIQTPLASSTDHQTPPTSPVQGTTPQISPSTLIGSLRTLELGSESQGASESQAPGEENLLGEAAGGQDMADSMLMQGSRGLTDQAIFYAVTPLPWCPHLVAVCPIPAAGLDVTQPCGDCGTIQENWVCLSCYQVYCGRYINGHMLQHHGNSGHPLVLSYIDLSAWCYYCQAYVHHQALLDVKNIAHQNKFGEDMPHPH
Peptide text beside a SMILES is read from it.
Listed compounds paired with reported HDAC6 activity raw data (signal)
Provide a numeric answer; units are not to be included.

Task: Please look up its HDAC6 activity raw data (signal): CC(C)C[C@H]1NC(=O)[C@H](Cc2c[nH]c3ccccc23)NC(=O)[C@H](CCCCCS)NC(=O)[C@@H](Cc2ccc(O)cc2)NC(=O)[C@@H](C(C)C)NC(=O)[C@H](Cc2c[nH]cn2)NC(=O)CNC(=O)CNC(=O)[C@@H](CO)NC1=O [des2.2.0, SHA-Trp-dLeu-dSer-Gly-Gly-His-dVal-dTyr] (HELM PEPTIDE1{G.G.H.[dV].[dY].[O=C([C@H](CCCCCS)N[*:1])[*:2]].W.[dL].[dS]}$PEPTIDE1,PEPTIDE1,1:R1-9:R2$$$V2.0)
Output: 128192

Task: Please look up its HDAC6 activity raw data (signal): NCCCC[C@@H]1NC(=O)[C@@H]2C[C@@H](O)CN2C(=O)[C@H](CC(N)=O)NC(=O)[C@H](CCCCCS)NC(=O)CNC(=O)[C@H](Cc2c[nH]c3ccccc23)NC(=O)[C@@H](CCCCN)NC(=O)[C@H](CCC(N)=O)NC1=O [des1.1.2, SHA-Asn-Hpr-Lys-Gln-dLys-Trp-Gly] (HELM PEPTIDE1{G.[O=C([C@H](CCCCCS)N[*:1])[*:2]].N.[Hyp].K.Q.[dK].W}$PEPTIDE1,PEPTIDE1,1:R1-8:R2$$$V2.0)
Output: 72135

Task: Please look up its HDAC6 activity raw data (signal): CSCC[C@H]1NC(=O)[C@@H](CO)NC(=O)[C@H](CC(N)=O)NC(=O)[C@H](CC(=O)O)NC(=O)[C@@H]([C@H](C)O)NC(=O)[C@H](Cc2c[nH]c3ccccc23)NC(=O)[C@H](CCCCCS)NC(=O)[C@H](CCCCN)NC(=O)[C@@H](CC(=O)O)NC1=O [des2.1.1, SHA-Trp-dThr-Asp-Asn-dSer-dMet-dAsp-Lys] (HELM PEPTIDE1{D.N.[dS].[dM].[dD].K.[O=C([C@H](CCCCCS)N[*:1])[*:2]].W.[dT]}$PEPTIDE1,PEPTIDE1,1:R1-9:R2$$$V2.0)
Output: 27729

Task: Please look up its HDAC6 activity raw data (signal): CCCC[C@H]1NC(=O)[C@H](Cc2ccccc2)NC(=O)[C@H](CCCCCS)NC(=O)[C@@H](CO)NC(=O)[C@H](CC(=O)O)NC(=O)[C@@H](CO)NC(=O)[C@@H](C)NC(=O)[C@H](CCCCN)NC1=O [des4.3.1.1, SHA-Phe-dNle-Lys-dAla-dSer-Asp-dSer] (HELM PEPTIDE1{D.[dS].[O=C([C@H](CCCCCS)N[*:1])[*:2]].F.[CCCC[C@@H](N[*:1])C(=O)[*:2]].K.[dA].[dS]}$PEPTIDE1,PEPTIDE1,1:R1-8:R2$$$V2.0)
Output: 971918
